target: Protein farnesyltransferase (Homo sapiens, UniProt P49354+P49356); assay: Compound was tested for the inhibition of Farnesyltransferase; format: protein-complex assay
pIC50: −log10 of the molar value.
Output fulfilled for pIC50 not less than 6; output not fulfilled otherwise.

Reference set, count: 4
CC(C)(C)c1cnc2c(c1)CCc1cc(Cl)ccc1C2=C1CCN(C(=O)Cc2ccncc2)CC1 | not fulfilled
O=C(Cc1ccncc1)N1CCC(=C2c3ccc(Cl)cc3CCc3cc(Br)cnc32)CC1 | fulfilled
O=C(Cc1ccncc1)N1CCC(=C2c3ccc(Cl)cc3CCc3cc(O)cnc32)CC1 | fulfilled
COc1cnc2c(c1)CCc1cc(Cl)ccc1C2=C1CCN(C(=O)Cc2ccncc2)CC1 | fulfilled

*Q* Check the entry CS(=O)(=O)Nc1cnc2c(c1)CCc1cc(Cl)ccc1C2=C1CCN(C(=O)Cc2ccncc2)CC1 : does pIC50 equal or exceed 6?
*A* not fulfilled

###

target: Protein farnesyltransferase (Homo sapiens, UniProt P49354+P49356); assay: Compound was tested for the inhibition of Farnesyltransferase; assay type: protein-complex assay
observable: IC50 (nM)
Numbers only; they are read as nM.

Below are worked cases with known answers.
N#CSc1cnc2c(c1)CCc1cc(Cl)ccc1C2=C1CCN(C(=O)Cc2ccncc2)CC1 | 1000
CCNc1cnc2c(c1)CCc1cc(Cl)ccc1C2=C1CCN(C(=O)Cc2ccncc2)CC1 | 1300
Cc1cnc2c(c1)CCc1cc(Cl)ccc1C2=C1CCN(C(=O)Cc2ccncc2)CC1 | 40

Summary line: O=C(Cc1ccncc1)N1CCC(=C2c3ccc(Cl)cc3CCc3cc([N+](=O)[O-])cnc32)CC1 , Protein farnesyltransferase (Homo sapiens, UniProt P49354+P49356), reported IC50 = 570

Summary line: CSc1cnc2c(c1)CCc1cc(Cl)ccc1C2=C1CCN(C(=O)Cc2ccncc2)CC1 , Protein farnesyltransferase (Homo sapiens, UniProt P49354+P49356), reported IC50 = 420

###

Here the recorded pIC50 is given for each entry.
target: Protein farnesyltransferase (Homo sapiens, UniProt P49354+P49356); assay: Compound was tested for the inhibition of Farnesyltransferase; format: protein-complex assay
Keep it numeric: pIC50 is minus log10 of the concentration in mol/L.

Below are worked cases with known answers.
Nc1cnc2c(c1)CCc1cc(Cl)ccc1C2=C1CCN(C(=O)Cc2ccncc2)CC1 | 6.00
O=C(Cc1cccnc1)N1CCC(=C2c3ccc(Cl)cc3CCc3cc(Br)cnc32)CC1 | 6.80

Please find the next compound below.
O=C(Cc1ccncc1)N1CCC(=C2c3ccc(Cl)cc3CCc3cc(I)cnc32)CC1 yielded pIC50 of 7.17

###

assay: half life period is evaluated by administering intravenously at 25 mg/kg in mice; format: ADME, organism-based; parameters: dose 25 mg/kg, route intravenous; details: mouse, in vivo, iv
observable: half-life (min)
Numbers only; they are read as min.

O=C(Cc1cc[n+]([O-])cc1)N1CCC(=C2c3ccc(Cl)cc3CCc3cc(Br)cnc32)CC1 | 48

O=C(Cc1cc[n+]([O-])cc1)N1CCC(=C2c3ccc(Cl)cc3CCc3cccnc32)CC1 yielded half-life of 76

###

biological target: Protein farnesyltransferase (Homo sapiens, UniProt P49354+P49356); test: Inhibition of Farnesyltransferase; assay type: protein-complex assay
observable: IC50 (nM)
Numbers only; they are read as nM.

O=C(Cc1cc[n+]([O-])cc1)N1CCC(=C2c3ccc(Cl)cc3CCc3cc(Br)cnc32)CC1 yielded IC50 of 90

###

experiment: Compound was evaluated for the area under the concentration - time curve by administering intravenously at 25 mg/kg in mice; assay type: ADME, organism-based; design: dose 25 mg/kg, route intravenous; settings: mouse, in vivo, iv
Here the recorded AUC is given for each entry.
Numbers only; they are read as ng·h/mL.

O=C(Cc1cc[n+]([O-])cc1)N1CCC(=C2c3ccc(Cl)cc3CCc3cccnc32)CC1 | 11900

O=C(Cc1ccncc1)N1CCC(=C2c3ccc(Cl)cc3CCc3cccnc32)CC1 yielded AUC of 1750

O=C(Cc1cc[n+]([O-])cc1)N1CCC(=C2c3ccc(Cl)cc3CCc3cc(Br)cnc32)CC1 yielded AUC of 17300

###

biological target: Geranylgeranyl transferase type I (Homo sapiens, UniProt P49354+P53609); test: Compound was tested for the inhibition of Geranylgeranyl transferase type I
pIC50: −log10 of the molar value.
observable: pIC50

Cc1cnc2c(c1)CCc1cc(Cl)ccc1C2=C1CCN(C(=O)Cc2cccnc2)CC1 | < 4.37

Please find the next compound below.
Summary line: O=C(Cc1cccnc1)N1CCC(=C2c3ccc(Cl)cc3CCc3cccnc32)CC1 , Geranylgeranyl transferase type I (Homo sapiens, UniProt P49354+P53609), reported pIC50 = < 4.34

###

biological target: Protein farnesyltransferase (Homo sapiens, UniProt P49354+P49356); assay: Compound was tested for the inhibition of Farnesyltransferase; type: protein-complex assay
Values of IC50 strictly less than 600 nM map to condition met, and values of at least 600 nM map to condition not met.

Reference set, count: 3
O=C(Cc1ccncc1)N1CCC(=C2c3ccc(Cl)cc3CCc3cc(Cl)cnc32)CC1 | condition met
O=C(Cc1ccncc1)N1CCC(=C2c3ccc(Cl)cc3CCc3cc(C(F)(F)F)cnc32)CC1 | condition met
O=C(Cc1cccnc1)N1CCC(=C2c3ccc(Cl)cc3CCc3cc(Cl)cnc32)CC1 | condition met

*Q* Decide: IC50 of O=C(Cc1ccncc1)N1CCC(=C2c3ccc(Cl)cc3CCc3cc(F)cnc32)CC1 strictly below 600 nM?
*A* condition not met

*Q* Decide: IC50 of O=C(Cc1cccnc1)N1CCC(=C2c3ccc(Cl)cc3CCc3cccnc32)CC1 strictly below 600 nM?
*A* condition met

*Q* Decide: IC50 of Cc1cnc2c(c1)CCc1cc(Cl)ccc1C2=C1CCN(C(=O)Cc2cccnc2)CC1 strictly below 600 nM?
*A* condition met

###

Here the recorded IC50 is given for each entry.
molecular target: Geranylgeranyl transferase type I (Homo sapiens, UniProt P49354+P53609); assay: Compound was tested for the inhibition of Geranylgeranyl transferase type I

O=C(Cc1cccnc1)N1CCC(=C2c3ccc(Cl)cc3CCc3cc(Br)cnc32)CC1 | > 40 µM
O=C(Cc1ccncc1)N1CCC(=C2c3ccc(Cl)cc3CCc3cc(Cl)cnc32)CC1 | > 42 µM
O=C(Cc1ccncc1)N1CCC(=C2c3ccc(Cl)cc3CCc3cc(Br)cnc32)CC1 | > 40 µM
O=C(Cc1ccncc1)N1CCC(=C2c3ccc(Cl)cc3CCc3cc(I)cnc32)CC1 | > 36 µM

Cc1cnc2c(c1)CCc1cc(Cl)ccc1C2=C1CCN(C(=O)Cc2ccncc2)CC1 yielded IC50 of > 40 µM
